Entries annotated with measured solubility thermodynamic at 24 h
ASSAY NAME: Determination of the solubility in 5% strength aqueous dextrose solution
Type: physicochemical
EXPERIMENTAL CONTEXT: saline or isotonic, thermodynamic from solid, room temperature, 24 h
Counter-ions that a name gives are not always drawn.

Worked cases, solubility thermodynamic at 24 h given:
COMPOUND: N#Cc1c(N)nc(SCc2csc(-c3ccc(Cl)cc3)n2)c(C#N)c1-c1ccc(OCCOC(=O)CC[C@@H](N)C(=O)NCCN)cc1 [Example 13, dihydrochloride]
solubility thermodynamic at 24 h: > 500 µg/mL

COMPOUND: C[C@H](NC(=O)[C@@H](N)CCCCN)C(=O)OCCOc1ccc(-c2c(C#N)c(N)nc(SCc3csc(-c4ccc(Cl)cc4)n3)c2C#N)cc1 [Example 4, dihydrochloride]
solubility thermodynamic at 24 h: > 500 µg/mL

COMPOUND: CC(C)C[C@H](NC(=O)[C@@H](N)CCCCN)C(=O)OCCOc1ccc(-c2c(C#N)c(N)nc(SCc3csc(-c4ccc(Cl)cc4)n3)c2C#N)cc1 [Example 11, dihydrochloride]
solubility thermodynamic at 24 h: > 500 µg/mL

COMPOUND: C[C@@H](NC(=O)[C@@H](N)CCCCN)C(=O)OCCOc1ccc(-c2c(C#N)c(N)nc(SCc3csc(-c4ccc(Cl)cc4)n3)c2C#N)cc1 [Example 12, dihydrochloride]
solubility thermodynamic at 24 h: > 500 µg/mL

COMPOUND: N#Cc1c(N)nc(SCc2csc(-c3ccc(Cl)cc3)n2)c(C#N)c1-c1ccc(OCCOC(=O)[C@@H](N)CCC(=O)NCCN)cc1 [Example 7, dihydrochloride]
solubility thermodynamic at 24 h: 100 µg/mL

-- ask Field request: solubility thermodynamic at 24 h | item: N#Cc1c(N)nc(SCc2csc(-c3ccc(Cl)cc3)n2)c(C#N)c1-c1ccc(OCCOC(=O)CC[C@H](NC(=O)CCC(=O)O)C(=O)O)cc1 [Example 10, disodium salt]
-- reply 390 µg/mL

-- ask What do we get for CC(C)[C@H](NC(=O)[C@@H](N)CCCNC(=N)N)C(=O)OCCOc1ccc(-c2c(C#N)c(N)nc(SCc3csc(-c4ccc(Cl)cc4)n3)c2C#N)cc1 [Example 3, dihydrochloride] ?
-- reply 450 µg/mL

-- ask Record: C[C@H](NC(=O)[C@@H](N)CCCNC(=N)N)C(=O)OCCOc1ccc(-c2c(C#N)c(N)nc(SCc3csc(-c4ccc(Cl)cc4)n3)c2C#N)cc1 [Example 14, dihydrochloride]
-- reply > 500 µg/mL

-- ask # iterate: N#Cc1c(N)nc(SCc2csc(-c3ccc(Cl)cc3)n2)c(C#N)c1-c1ccc(OCCOC(=O)CNC(=O)[C@@H](N)CCCCN)cc1 [Example 17, dihydrochloride]
-- reply > 500 µg/mL

-- ask What would you report for CC(C)[C@H](NC(=O)[C@@H](N)CCCCN)C(=O)OCCOc1ccc(-c2c(C#N)c(N)nc(SCc3csc(-c4ccc(Cl)cc4)n3)c2C#N)cc1 [Example 1, dihydrochloride] ?
-- reply > 500 µg/mL

---

ASSAY NAME: Stability in buffer at various pH values
Assay type: physicochemical
EXPERIMENTAL CONTEXT: pH 7.4, 37° C., 4 h
Where a name gives a salt, the structure may show the parent alone.
READOUT TYPE: % test substance after 4 h [F(t = 4 h) × 100/F(t = 0 h)] (%)
Give the value in % but do not write % after it.

Known results for molecules:
MOLECULE: C[C@H](NC(=O)[C@@H](N)CCCCN)C(=O)OCCOc1ccc(-c2c(C#N)c(N)nc(SCc3csc(-c4ccc(Cl)cc4)n3)c2C#N)cc1 [Example 4, dihydrochloride]
VAL: 48
//
MOLECULE: CC(C)[C@H](NC(=O)[C@@H](N)CCCNC(=N)N)C(=O)OCCOc1ccc(-c2c(C#N)c(N)nc(SCc3csc(-c4ccc(Cl)cc4)n3)c2C#N)cc1 [Example 3, dihydrochloride]
VAL: 99
//
MOLECULE: C[C@H](NC(=O)[C@@H](N)CCCNC(=N)N)C(=O)OCCOc1ccc(-c2c(C#N)c(N)nc(SCc3csc(-c4ccc(Cl)cc4)n3)c2C#N)cc1 [Example 14, dihydrochloride]
VAL: 68
//
MOLECULE: CC(C)C[C@H](NC(=O)[C@@H](N)CCCCN)C(=O)OCCOc1ccc(-c2c(C#N)c(N)nc(SCc3csc(-c4ccc(Cl)cc4)n3)c2C#N)cc1 [Example 11, dihydrochloride]
VAL: 90

Kindly consider the entry below.
-- ask Find the recorded % test substance after 4 h [F(t = 4 h) × 100/F(t = 0 h)] belonging to N#Cc1c(N)nc(SCc2csc(-c3ccc(Cl)cc3)n2)c(C#N)c1-c1ccc(OCCOC(=O)[C@@H](N)CCC(=O)NCCN)cc1 [Example 7, dihydrochloride] and report it.
-- reply 51

---

ASSAY NAME: Stability in buffer at various pH values
Type: physicochemical
EXPERIMENTAL CONTEXT: pH 6, 37° C., 24 h
Structures can show the parent of a compound that is named as a salt.
READOUT TYPE: % test substance after 24 h [F(t = 24 h) × 100/F(t = 0 h)] (%)
Report the figure in % without appending any unit label.

Use the examples below as a reference point.
MOLECULE: N#Cc1c(N)nc(SCc2csc(-c3ccc(Cl)cc3)n2)c(C#N)c1-c1ccc(OCCOC(=O)[C@H](CO)NC(=O)[C@@H](N)CCCCN)cc1 [Example 5, dihydrochloride]
VAL: 70
//
MOLECULE: N#Cc1c(N)nc(SCc2csc(-c3ccc(Cl)cc3)n2)c(C#N)c1-c1ccc(OCCOC(=O)CC[C@H](N)C(=O)NCCN)cc1 [Example 6, dihydrochloride]
VAL: 25
//
MOLECULE: C[C@H](NC(=O)[C@@H](N)CCCCN)C(=O)OCCOc1ccc(-c2c(C#N)c(N)nc(SCc3csc(-c4ccc(Cl)cc4)n3)c2C#N)cc1 [Example 4, dihydrochloride]
VAL: 84

-- ask Form field: reported % test substance after 24 h [F(t = 24 h) × 100/F(t = 0 h)] of CC(C)[C@H](NC(=O)[C@@H](N)CCCCN)C(=O)OCCOc1ccc(-c2c(C#N)c(N)nc(SCc3csc(-c4ccc(Cl)cc4)n3)c2C#N)cc1 [Example 1, dihydrochloride]
-- reply 100

---

ASSAY NAME: Determination of the solubility in 5% strength aqueous dextrose solution
Type: physicochemical
EXPERIMENTAL CONTEXT: saline or isotonic, thermodynamic from solid, room temperature, 24 h
Structures can show the parent of a compound that is named as a salt.
Collected solubility thermodynamic at 24 h values appear next to each entry.
Numbers only; they are read as mg/mL.

COMPOUND: N#Cc1c(N)nc(SCc2csc(-c3ccc(Cl)cc3)n2)c(C#N)c1-c1ccc(OCCOC(=O)[C@H](Cc2ccccc2)NC(=O)[C@@H](N)CCCCN)cc1 [Example 18, dihydrochloride]
solubility thermodynamic at 24 h (mg/mL): 0.45

# evaluate next
-- ask Consider the compound shown here: C[C@H](NC(=O)[C@@H](N)Cc1cnc[nH]1)C(=O)OCCOc1ccc(-c2c(C#N)c(N)nc(SCc3csc(-c4ccc(Cl)cc4)n3)c2C#N)cc1 [Example 15, dihydrochloride] What is its recorded solubility thermodynamic at 24 h?
-- reply 0.45
